Measured MIC E. coli ATCC 25922 accompanies every entry in the list below.
system: E. coli ATCC 25922; conditions: ATCC 25922
Positions of bridges follow the written chain, without caps; N, C: chain ends. Non-standard residues stand in square brackets, D forms with d. Residues, ends and D or L forms follow the SMILES beside them. *: point of attachment. Decanoyl(3R-OH) = CCCCCCC[C@@H](O)CC(=O)*; Phe(4-NH2) = Nc1ccc(C[C@H](N)C(=O)O)cc1; hPhe = N[C@@H](CCc1ccccc1)C(=O)O; dDab = NCC[C@@H](N)C(=O)O; Dab = NCC[C@H](N)C(=O)O
Give the value, in units of µg/mL, as a plain number.

For orientation, consider the following solved cases.
CCCCCCC[C@@H](O)CC(=O)N[C@H](CCN)C(=O)N[C@H]1CCNC(=O)[C@H](Cc2c[nH]c3ccccc23)NC(=O)[C@H](CCN)NC(=O)[C@H](CCN)NC(=O)[C@H](CCc2ccccc2)NC(=O)[C@@H](Cc2ccccc2)NC(=O)[C@H](CCN)NC1=O [compound 8834] ({Decanoyl(3R-OH)}-[dDab][Dab][Dab][dF][hPhe][Dab][Dab]W; lactam 2-C) = 8
CCCCCCC[C@@H](O)CC(=O)N[C@H](CCN)C(=O)N[C@H]1CCNC(=O)[C@H]([C@@H](C)O)NC(=O)[C@H](Cc2ccc(N)cc2)NC(=O)[C@H](CCN)NC(=O)[C@H](CC(C)C)NC(=O)[C@@H](Cc2ccccc2)NC(=O)[C@H](CCN)NC1=O [compound 5605] ({Decanoyl(3R-OH)}-[dDab][Dab][Dab][dF]L[Dab][Phe(4-NH2)]T; lactam 2-C) = 16

Shift focus to the following entry.
query: For the compound CCCCCCC[C@@H](O)CC(=O)N[C@H](CCN)C(=O)N[C@H]1CCNC(=O)[C@H](Cc2ccccc2)NC(=O)[C@H](CCN)NC(=O)[C@H](CCN)NC(=O)[C@H](Cc2ccccc2)NC(=O)[C@@H](Cc2ccccc2)NC(=O)[C@H](CCN)NC1=O [compound 5005] ({Decanoyl(3R-OH)}-[dDab][Dab][Dab][dF]F[Dab][Dab]F; lactam 2-C) , give its measured MIC E. coli ATCC 25922 value.
result: 8

---

experiment: in vitro; details: human
Positions of bridges follow the written chain, without caps; N, C: chain ends. Non-standard residues stand in square brackets, D forms with d. Residues, ends and D or L forms follow the SMILES beside them. *: point of attachment. Decanoyl(3R-OH) = CCCCCCC[C@@H](O)CC(=O)*; dDab = NCC[C@@H](N)C(=O)O; Dab = NCC[C@H](N)C(=O)O
measure-name: CC50 at 24 h (µM)
Give the value, in units of µM, as a plain number.

query: For the compound CCCCCCC[C@@H](O)CC(=O)N[C@H](CCN)C(=O)N[C@H]1CCNC(=O)[C@H](CC(C)C)NC(=O)[C@H](CCN)NC(=O)[C@H](CCN)NC(=O)[C@H](CC(C)C)NC(=O)[C@@H](Cc2ccccc2)NC(=O)[C@H](C)NC1=O [compound 4948] ({Decanoyl(3R-OH)}-[dDab][Dab]A[dF]L[Dab][Dab]L; lactam 2-C) , give its measured CC50 at 24 h value.
result: 112
